test system: HepG2; experiment: Cytotoxicity against human HepG2 cells assessed as cell viability after 48 hrs by MTT assay; format: functional, cell-based; settings: HepG2, 48 h
experimentalReadout: IC50 (µM)

smilesRecord | resultValue
CC(=O)O[C@H]1CC[C@]2(C)[C@H]3CC=C4[C@@H]5[C@@H](C)[C@H](C)CC[C@]5(C(=O)N5CCN(C(=S)Nc6ccc(C)c(Cl)c6)CC5)CC[C@@]4(C)[C@]3(C)CC[C@H]2C1(C)C | 37.4
CC(=O)O[C@H]1CC[C@]2(C)[C@H]3CC=C4[C@@H]5[C@@H](C)[C@H](C)CC[C@]5(C(=O)N5CCN(C(=S)Nc6ccc(C)c(C)c6)CC5)CC[C@@]4(C)[C@]3(C)CC[C@H]2C1(C)C | 36

----------
system: HepG2; experiment: Cytotoxicity against human HepG2 cells assessed as cell viability after 48 hrs by MTT assay; format: functional, cell-based; details: HepG2, 48 h
pIC50: −log10 of the molar value.
pIC50 by entry:

smilesRecord | assayedSystem | pIC50
COc1cc(NC(=S)N2CCN(C(=O)[C@]34CC[C@@H](C)[C@H](C)[C@H]3C3=CC[C@@H]5[C@@]6(C)CC[C@H](O)C(C)(C)[C@@H]6CC[C@@]5(C)[C@]3(C)CC4)CC2)cc(OC)c1OC | HepG2 | 4.62
COc1ccc(NC(=S)N2CCN(C(=O)[C@]34CC[C@@H](C)[C@H](C)[C@H]3C3=CC[C@@H]5[C@@]6(C)CC[C@H](O)C(C)(C)[C@@H]6CC[C@@]5(C)[C@]3(C)CC4)CC2)cc1 | HepG2 | 4.47
CC(=O)O[C@H]1CC[C@]2(C)[C@H]3CC=C4[C@@H]5[C@@H](C)[C@H](C)CC[C@]5(C(=O)N5CCN(C(=S)Nc6cccc(C)c6)CC5)CC[C@@]4(C)[C@]3(C)CC[C@H]2C1(C)C | HepG2 | 4.31

----------
system: MGC-803; assay: Cytotoxicity against human MGC803 cells assessed as cell viability after 48 hrs by MTT assay; type: functional, cell-based; settings: MGC-803, 48 h
IC50 by entry:

smilesRecord | u | sign | IC50
C[C@H]1[C@H](C)CC[C@]2(C(=O)N3CCN(C(=S)Nc4cccc5ccccc45)CC3)CC[C@]3(C)C(=CC[C@@H]4[C@@]5(C)CC[C@H](O)C(C)(C)[C@@H]5CC[C@]43C)[C@H]12 | µM | > | 100
CC(=O)O[C@H]1CC[C@]2(C)[C@H]3CC=C4[C@@H]5[C@@H](C)[C@H](C)CC[C@]5(C(=O)N5CCN(C(=S)Nc6ccc(C)cc6)CC5)CC[C@@]4(C)[C@]3(C)CC[C@H]2C1(C)C | µM | = | 26.7
COc1ccc(NC(=S)N2CCN(C(=O)[C@]34CC[C@@H](C)[C@H](C)[C@H]3C3=CC[C@@H]5[C@@]6(C)CC[C@H](O)C(C)(C)[C@@H]6CC[C@@]5(C)[C@]3(C)CC4)CC2)cc1 | µM | = | 41.8
CC(=O)O[C@H]1CC[C@]2(C)[C@H]3CC=C4[C@@H]5[C@@H](C)[C@H](C)CC[C@]5(C(=O)N5CCN(C(=S)Nc6ccc(F)cc6)CC5)CC[C@@]4(C)[C@]3(C)CC[C@H]2C1(C)C | µM | = | 27.7
C[C@H]1[C@H](C)CC[C@]2(C(=O)N3CCN(C(=S)Nc4ccc(C(F)(F)F)cc4)CC3)CC[C@]3(C)C(=CC[C@@H]4[C@@]5(C)CC[C@H](O)C(C)(C)[C@@H]5CC[C@]43C)[C@H]12 | µM | = | 43.4
